- target-desc: human TPIIle170Thr (Homo sapiens, UniProt P60174, I171T)
- Construct: 6x-histidine tagged human TPI
- method-notes: enzyme-coupled activity assay with PEP titration; thermal shift ΔTm […]°C
pIC50: −log10 of the molar value.
property-measured: pIC50

| molecule | measurement |
| --- | --- |
| C=C(OP(=O)(O)O)C(=O)O [PEP, phosphoenolpyruvate] | 2.81 |

====

- target-desc: human TPIIle170Val (Homo sapiens, UniProt P60174, I171V)
- Construct: 6x-histidine tagged human TPI
- Sequence (P60174 2-249 I171V): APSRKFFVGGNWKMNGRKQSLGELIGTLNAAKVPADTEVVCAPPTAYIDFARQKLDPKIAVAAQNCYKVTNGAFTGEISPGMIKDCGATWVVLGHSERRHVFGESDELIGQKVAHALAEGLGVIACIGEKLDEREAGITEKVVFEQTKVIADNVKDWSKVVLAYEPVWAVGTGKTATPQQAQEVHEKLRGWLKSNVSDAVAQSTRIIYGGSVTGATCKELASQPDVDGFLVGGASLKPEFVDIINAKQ
- method-notes: enzyme-coupled activity assay with PEP titration; thermal shift ΔTm […]°C

| compound | unit-string | IC50 |
| --- | --- | --- |
| C=C(OP(=O)(O)O)C(=O)O [PEP, phosphoenolpyruvate] | µM | 1930 |
